- assayed target: IAG-nucleoside hydrolase (Trypanosoma vivax, UniProt Q9GPQ4)
- Sequence (Q9GPQ4 whole entry): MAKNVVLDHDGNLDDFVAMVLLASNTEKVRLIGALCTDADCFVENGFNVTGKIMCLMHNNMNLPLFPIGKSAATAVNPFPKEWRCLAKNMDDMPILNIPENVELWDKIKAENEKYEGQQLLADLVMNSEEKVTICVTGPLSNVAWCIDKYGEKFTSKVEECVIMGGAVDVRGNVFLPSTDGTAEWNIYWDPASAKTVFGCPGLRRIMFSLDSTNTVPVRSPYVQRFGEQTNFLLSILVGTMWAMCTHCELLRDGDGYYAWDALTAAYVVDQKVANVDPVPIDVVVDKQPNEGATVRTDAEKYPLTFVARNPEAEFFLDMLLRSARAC
pKi: −log10 of the molar value.

{"compound": "NC(N)=NCC[C@@H]1O[C@H](CO)[C@@H](O)[C@H]1O", "assayed target": "IAG-nucleoside hydrolase (Trypanosoma vivax, UniProt Q9GPQ4)", "pKi": 3.51}
{"compound": "CC(C[C@@H]1O[C@H](CO)[C@@H](O)[C@H]1O)N=C(N)N (some centres not stated)", "assayed target": "IAG-nucleoside hydrolase (Trypanosoma vivax, UniProt Q9GPQ4)", "pKi": 3.16}
{"compound": "N=C(N)c1ccc(CN2C[C@H](O)[C@H](O)[C@H]2CO)cc1", "assayed target": "IAG-nucleoside hydrolase (Trypanosoma vivax, UniProt Q9GPQ4)", "pKi": 5.17}
{"compound": "OC[C@H]1NC[C@H](O)[C@@H]1O [IMINORIBITOL]", "assayed target": "IAG-nucleoside hydrolase (Trypanosoma vivax, UniProt Q9GPQ4)", "pKi": 5.21}
{"compound": "N=C(N)NCC[C@@H]1N[C@H](CO)[C@@H](O)[C@H]1O", "assayed target": "IAG-nucleoside hydrolase (Trypanosoma vivax, UniProt Q9GPQ4)", "pKi": 4.74}
{"compound": "C[N+](C)(C)C[C@@H]1O[C@H](CO)[C@@H](O)[C@H]1O", "assayed target": "IAG-nucleoside hydrolase (Trypanosoma vivax, UniProt Q9GPQ4)", "pKi": 2.89}
{"compound": "NC(N)=NC[C@@H]1O[C@H](CO)[C@@H](O)[C@H]1O", "assayed target": "IAG-nucleoside hydrolase (Trypanosoma vivax, UniProt Q9GPQ4)", "pKi": 3.26}
